# TEST DETAILS: self-splicing fitness, log relative to wild type (ln ratio); higher = more splicing; Tetrahymena group I intron in knt gene, E. coli kanamycin selection, DiMSum; sequences stand for … in CUCUCU…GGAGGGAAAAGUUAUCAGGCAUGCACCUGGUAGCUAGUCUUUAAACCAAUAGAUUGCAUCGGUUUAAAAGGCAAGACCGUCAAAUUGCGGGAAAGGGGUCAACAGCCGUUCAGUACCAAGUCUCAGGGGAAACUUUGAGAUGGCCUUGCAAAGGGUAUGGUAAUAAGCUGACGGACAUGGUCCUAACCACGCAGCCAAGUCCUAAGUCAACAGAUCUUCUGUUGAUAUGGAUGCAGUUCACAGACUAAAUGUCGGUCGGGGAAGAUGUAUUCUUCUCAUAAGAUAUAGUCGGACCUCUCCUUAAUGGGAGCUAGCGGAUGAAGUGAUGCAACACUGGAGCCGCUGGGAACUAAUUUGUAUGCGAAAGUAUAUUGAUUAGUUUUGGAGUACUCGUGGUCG;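 further: selection with 25 µg/mL kanamycin versus none on LB agar overnight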
# DETAILS: 37 °C
Note to self: values exactly at -1 are criterion met. So self-splicing fitness (ln) at or above -1 is criterion met, below is criterion not met.

Q: Hi team, for `GCGUAGCAAUAUUACGGAUA` , is the recorded self-splicing fitness (ln) at or above -1?
Result: criterion met

Q: Item: `AGCUAGCAAUAUUACGGAAU`
Result: criterion not met

Q: Item: `GGAAAGCAAUAUUACGAACA`
Result: criterion met

Q: Item: `GUGUAGCAAUAUUACGGAGA`
Result: criterion not met

Q: Item: `CUCUAGCAAUAUUACGCACA`
Result: criterion not met

Q: Item: `GCCUAGCAAUAUUACGAUCA`
Result: criterion not met

Q: Item: `CAGUAGCAAUAUUACGCACC`
Result: criterion not met

Q: Item: `GGGAAGCAAUAUUACGACGC`
Result: criterion met

Q: Item: `AGAAAGCAAUAUUACGACUC`
Result: criterion met

Q: Item: `CAGUAGCAAUAUUACGUGUG`
Result: criterion not met

Q: Item: `UGUGAGCAAUAUUACGUAUA`
Result: criterion not met

Q: Item: `GGGAAGCAAUAUUACGAGCG`
Result: criterion met

Q: Item: `GGGCAGCAAUAUUACGUCAG`
Result: criterion met

Q: Item: `CGUCAGCAAUAUUACGAGCA`
Result: criterion met

Q: Item: `UCUGAGCAAUAUUACGCAAC`
Result: criterion not met

Q: Item: `UGACAGCAAUAUUACGUAUA`
Result: criterion met

Q: Item: `UUGUAGCAAUAUUACGGGGA`
Result: criterion met

Q: Item: `GACCAGCAAUAUUACGCACG`
Result: criterion met

Q: Item: `GAAUAGCAAUAUUACGAUCU`
Result: criterion met

Q: Item: `UAGAAGCAAUAUUACGAGUC`
Result: criterion not met

Q: Item: `ACCUAGCAAUAUUACGUUUC`
Result: criterion not met

Q: Item: `UUAUAGCAAUAUUACGGGUG`
Result: criterion met

Q: Item: `CGCGAGCAAUAUUACGCUGG`
Result: criterion not met

Q: Item: `CGCAAGCAAUAUUACGGCGC`
Result: criterion not met

Q: Item: `GGUUAGCAAUAUUACGCAGU`
Result: criterion not met

Q: Item: `UUUCAGCAAUAUUACGAAAU`
Result: criterion not met

Q: Item: `CUUUAGCAAUAUUACGCAUU`
Result: criterion not met

Q: Item: `GCUGAGCAAUAUUACGAUAG`
Result: criterion not met

Q: Item: `CUUGAGCAAUAUUACGGGGG`
Result: criterion not met

Q: Item: `CGUCAGCAAUAUUACGUCCU`
Result: criterion not met

Q: Item: `UAAGAGCAAUAUUACGUGUG`
Result: criterion not met

Q: Item: `UUCCAGCAAUAUUACGGGUA`
Result: criterion met

Q: Item: `GUCCAGCAAUAUUACGGAAG`
Result: criterion met
